- experiment description: ABTS radical scavenging assay
- stated conditions: 6 min
measure: ABTS^•+ % (100 μΜ)

These solved cases illustrate the format of a correct answer.
Cc1c(-c2ccc(O)cc2)c(=O)oc2ccc(Br)cc12 = no
Cc1c(-c2ccc(Cl)cc2)c(=O)oc2cccc(O)c12 = 65.2%
CC(=O)Oc1ccc(-c2c(C)c3cc(Cl)ccc3oc2=O)cc1 = no
Cc1c(-c2ccccc2F)c(=O)oc2cccc(O)c12 = 73.3%
Cc1c(-c2ccc(F)cc2)c(=O)oc2cccc(O)c12 = 64.2%

Task: Identify measured ABTS^•+ % (100 μΜ) associated with "Cc1c(-c2ccc(O)cc2)c(=O)oc2ccc(Cl)cc12"
Output: no

Task: Identify measured ABTS^•+ % (100 μΜ) associated with "CC(=O)Oc1ccc(-c2c(C)c3ccccc3oc2=O)cc1"
Output: no

Task: Identify measured ABTS^•+ % (100 μΜ) associated with "CC(=O)Oc1cccc2oc(=O)c(-c3cccc(Br)c3)c(C)c12"
Output: 2.8%

Task: Identify measured ABTS^•+ % (100 μΜ) associated with "CC(=O)Oc1cccc2oc(=O)c(-c3ccccc3Cl)c(C)c12"
Output: no

Task: Identify measured ABTS^•+ % (100 μΜ) associated with "CC(=O)Oc1ccc(-c2c(C)c3cc(Cl)ccc3oc2=O)cc1OC(C)=O"
Output: no

Task: Identify measured ABTS^•+ % (100 μΜ) associated with "Cc1c(-c2cccc(F)c2)c(=O)oc2cccc(O)c12"
Output: 69.2%
